Hello, the source for this data is ChEMBL document CHEMBL5046228, in case you need it.

# test.target: Epidermal growth factor receptor (Homo sapiens, UniProt P00533, EX19DEL)
# Sequence (P00533 whole entry, looked up, stated change not applied): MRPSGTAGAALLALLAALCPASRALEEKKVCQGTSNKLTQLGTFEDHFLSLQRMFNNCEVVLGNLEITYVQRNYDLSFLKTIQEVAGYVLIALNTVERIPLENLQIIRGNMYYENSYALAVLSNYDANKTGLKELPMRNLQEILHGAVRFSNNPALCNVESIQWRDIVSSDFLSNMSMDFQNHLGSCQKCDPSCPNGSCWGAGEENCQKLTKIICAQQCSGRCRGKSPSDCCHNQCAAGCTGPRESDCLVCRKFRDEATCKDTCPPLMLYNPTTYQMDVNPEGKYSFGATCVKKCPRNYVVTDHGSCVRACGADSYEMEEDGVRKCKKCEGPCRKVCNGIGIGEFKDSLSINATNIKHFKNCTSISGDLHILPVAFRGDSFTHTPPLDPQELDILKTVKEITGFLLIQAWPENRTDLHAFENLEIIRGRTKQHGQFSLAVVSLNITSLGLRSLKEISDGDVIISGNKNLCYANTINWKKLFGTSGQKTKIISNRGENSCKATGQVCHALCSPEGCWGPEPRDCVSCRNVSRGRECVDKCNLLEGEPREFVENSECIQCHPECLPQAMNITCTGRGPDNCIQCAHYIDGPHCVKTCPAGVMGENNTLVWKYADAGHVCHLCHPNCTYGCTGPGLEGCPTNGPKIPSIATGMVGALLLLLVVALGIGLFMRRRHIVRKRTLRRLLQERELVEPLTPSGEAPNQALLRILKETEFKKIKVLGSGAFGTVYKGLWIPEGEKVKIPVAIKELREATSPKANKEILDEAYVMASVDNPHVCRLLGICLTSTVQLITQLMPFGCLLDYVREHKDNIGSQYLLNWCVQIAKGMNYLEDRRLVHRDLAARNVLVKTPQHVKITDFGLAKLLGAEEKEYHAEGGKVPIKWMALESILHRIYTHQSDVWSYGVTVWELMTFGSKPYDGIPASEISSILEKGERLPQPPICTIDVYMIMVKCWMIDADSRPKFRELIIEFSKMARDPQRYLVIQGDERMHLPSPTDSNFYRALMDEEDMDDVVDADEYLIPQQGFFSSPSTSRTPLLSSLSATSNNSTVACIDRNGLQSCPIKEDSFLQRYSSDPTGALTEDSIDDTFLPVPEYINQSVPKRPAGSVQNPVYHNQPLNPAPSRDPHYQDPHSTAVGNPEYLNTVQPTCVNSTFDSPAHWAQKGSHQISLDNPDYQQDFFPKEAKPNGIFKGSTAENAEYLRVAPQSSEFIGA
# method.notes: Inhibition of EGFR del19 (unknown origin) using flurogenic substrate in presence of ATP by HTRF assay
# IC50 annotations
Provide the reading as a plain figure in nM.

C=CC(=O)Nc1cc(Nc2nccc(Nc3cn(C)c4ccccc34)n2)c(OC)cc1N(C)CCN(C)CC(=C)C	64
C#CCN(C)CCN(C)c1cc(OC)c(Nc2nccc(Nc3ccn(C)n3)n2)cc1NC(=O)C=C	22.3
C=CC(=O)Nc1cc(Nc2nccc(Nc3cn(C)c4ccccc34)n2)c(OC)cc1N(C)CCN(C)C(=O)c1ccc(Br)cc1	301

Query molecule follows.
input: Report IC50 for C=CC(=O)Nc1cc(Nc2nccc(Nc3cn(C)c4ccccc34)n2)c(OC)cc1N(C)CCN(C)Cc1ccc(Br)cc1
output: 143

###

# test.target: Epidermal growth factor receptor (Homo sapiens, UniProt P00533, C797S/T790M)
# Sequence (P00533 25-1210 T790M/C797S limits assumed): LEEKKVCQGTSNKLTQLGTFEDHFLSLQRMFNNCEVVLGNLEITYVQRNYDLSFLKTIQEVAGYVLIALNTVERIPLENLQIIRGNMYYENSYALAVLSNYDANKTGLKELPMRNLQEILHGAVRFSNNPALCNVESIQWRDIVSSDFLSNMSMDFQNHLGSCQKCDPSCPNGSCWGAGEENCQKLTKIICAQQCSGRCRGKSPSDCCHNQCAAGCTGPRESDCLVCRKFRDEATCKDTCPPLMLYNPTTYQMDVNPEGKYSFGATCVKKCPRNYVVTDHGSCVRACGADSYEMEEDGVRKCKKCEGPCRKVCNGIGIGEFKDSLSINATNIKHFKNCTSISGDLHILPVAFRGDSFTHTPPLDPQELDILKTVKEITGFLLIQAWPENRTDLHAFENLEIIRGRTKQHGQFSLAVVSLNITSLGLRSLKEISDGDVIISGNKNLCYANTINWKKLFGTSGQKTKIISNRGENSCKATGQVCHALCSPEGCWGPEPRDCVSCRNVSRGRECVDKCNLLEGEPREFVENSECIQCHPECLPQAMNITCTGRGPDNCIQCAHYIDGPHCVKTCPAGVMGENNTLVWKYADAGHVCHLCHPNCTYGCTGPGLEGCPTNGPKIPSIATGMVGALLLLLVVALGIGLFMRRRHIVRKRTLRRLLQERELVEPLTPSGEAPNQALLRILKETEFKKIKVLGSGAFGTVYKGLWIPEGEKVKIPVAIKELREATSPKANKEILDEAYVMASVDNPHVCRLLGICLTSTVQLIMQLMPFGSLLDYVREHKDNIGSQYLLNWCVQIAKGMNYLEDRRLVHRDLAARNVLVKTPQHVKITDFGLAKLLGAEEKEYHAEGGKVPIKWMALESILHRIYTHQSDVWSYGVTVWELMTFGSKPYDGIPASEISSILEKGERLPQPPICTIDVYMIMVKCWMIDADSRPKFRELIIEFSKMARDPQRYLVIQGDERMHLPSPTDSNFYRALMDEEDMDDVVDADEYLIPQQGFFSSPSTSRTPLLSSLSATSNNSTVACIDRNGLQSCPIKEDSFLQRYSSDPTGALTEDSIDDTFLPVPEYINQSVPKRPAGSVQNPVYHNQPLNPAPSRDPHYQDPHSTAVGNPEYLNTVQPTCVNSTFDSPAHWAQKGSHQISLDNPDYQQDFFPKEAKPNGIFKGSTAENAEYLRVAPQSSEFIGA
# method.notes: Inhibition of EGFR T790M/C797S double mutant (unknown origin) using flurogenic substrate in presence of ATP by HTRF assay
# log10(IC50) annotations
Scale: log10; quantity: IC50; unit before log: nM

Solved cases below.
C=CC(=O)Nc1cc(Nc2nccc(Nc3cn(C)c4ccccc34)n2)c(OC)cc1N(C)CCN(C)CC(=O)OC	0.76
C=CC(=O)Nc1cc(Nc2nccc(Nc3cn(C)c4ccccc34)n2)c(OC)cc1N(C)CCN(C)C(=O)C#CC	1.76
C=CC(=O)Nc1cc(Nc2nccc(Nc3cn(C)c4ccccc34)n2)c(OC)cc1N(C)CCN(C)C(=O)C=C	1.56

input: Report log10(IC50) for C=CC(=O)Nc1cc(Nc2nccc(Nc3ccn(C)n3)n2)c(OC)cc1N(C)CCN(C)CC(=C)C
output: 2.60

input: Report log10(IC50) for C=CC(=O)Nc1cc(Nc2nccc(Nc3ccn(C)n3)n2)c(OC)cc1N(C)CCN(C)CC(=O)OC
output: 1.63

input: Report log10(IC50) for C=CC(=O)Nc1cc(Nc2nccc(Nc3ccn(C)n3)n2)c(OC)cc1N(C)CCN(C)C
output: 0.79

input: Report log10(IC50) for C=CC(=O)Nc1cc(Nc2nccc(Nc3cn(C)nc3C)n2)c(OC)cc1N(C)CCN(C)C
output: 0.75

input: Report log10(IC50) for C=CC(=O)Nc1cc(Nc2nccc(Nc3cnn(CC)c3)n2)c(OC)cc1N(C)CCN(C)C
output: 0.90

input: Report log10(IC50) for C=CCCN(C)CCN(C)c1cc(OC)c(Nc2nccc(Nc3cn(C)c4ccccc34)n2)cc1NC(=O)C=C
output: 0.30

input: Report log10(IC50) for C=CC(=O)Nc1cc(Nc2nccc(Nc3cn(C)c4ccccc34)n2)c(OC)cc1N(C)CCN(C)Cc1ccc(Br)cc1
output: 0.91

input: Report log10(IC50) for C=CC(=O)Nc1cc(Nc2nccc(Nc3cn(C)c4ccccc34)n2)c(OC)cc1N(C)CCN(C)CC(=C)C
output: 0.76

input: Report log10(IC50) for C=CC(=O)Nc1cc(Nc2nccc(Nc3cnn(C)c3)n2)c(OC)cc1N(C)CCN(C)C
output: 1.33

input: Report log10(IC50) for C#CCN(C)CCN(C)c1cc(OC)c(Nc2nccc(Nc3ccn(C)n3)n2)cc1NC(=O)C=C
output: 0.93

input: Report log10(IC50) for C#CCN(C)CCN(C)c1cc(OC)c(Nc2nccc(Nc3cn(C)c4ccccc34)n2)cc1NC(=O)C=C
output: 0.60

input: Report log10(IC50) for C=CC(=O)Nc1cc(Nc2nccc(Nc3cn(C)c4ccccc34)n2)c(OC)cc1N(C)CCN(C)C(=O)OC
output: 1.09

input: Report log10(IC50) for C=CC(=O)Nc1cc(Nc2nccc(Nc3ccn(C)n3)n2)c(OC)cc1N(C)CCN(C)C(=O)OC
output: 2.70

input: Report log10(IC50) for C=CC(=O)Nc1cc(Nc2nccc(Nc3cn(C)c4ccccc34)n2)c(OC)cc1N(C)CCN(C)C(=O)c1ccc(Br)cc1
output: 1.10

###

# method.notes: Selectivity index, ratio of IC50 Inhibition of wild type EGFR (unknown origin) to IC50 for Inhibition of EGFR T790M/C797S double mutant (unknown origin)
observable: Ratio IC50
Quick one: just the number, no unit, thanks!

C=CC(=O)Nc1cc(Nc2nccc(Nc3ccn(C)n3)n2)c(OC)cc1N(C)CCN(C)CC(=O)OC	22.5

Query compound follows.
input: Report Ratio IC50 for C=CC(=O)Nc1cc(Nc2nccc(Nc3cn(C)nc3C)n2)c(OC)cc1N(C)CCN(C)C
output: 12.6

###

# IC50 annotations
# test.target: Epidermal growth factor receptor (Homo sapiens, UniProt P00533, EX19DEL)
# method.notes: Inhibition of EGFR del19 (unknown origin) using flurogenic substrate in presence of ATP by HTRF assay
Provide the reading as a plain figure in nM.

C=CC(=O)Nc1cc(Nc2nccc(Nc3ccn(C)n3)n2)c(OC)cc1N(C)CCN(C)C	12.6
C=CC(=O)Nc1cc(Nc2nccc(Nc3ccn(C)n3)n2)c(OC)cc1N(C)CCN(C)C(=O)OC	288
C=CC(=O)Nc1cc(Nc2nccc(Nc3cn(C)c4ccccc34)n2)c(OC)cc1N(C)CCN(C)C(=O)C=C	723
C=CC(=O)Nc1cc(Nc2nccc(Nc3ccn(C)n3)n2)c(OC)cc1N(C)CCN(C)CC(=O)OC	106
C=CCCN(C)CCN(C)c1cc(OC)c(Nc2nccc(Nc3cn(C)c4ccccc34)n2)cc1NC(=O)C=C	13.1

input: Report IC50 for C=CC(=O)Nc1cc(Nc2nccc(Nc3cn(C)c4ccccc34)n2)c(OC)cc1N(C)CCN(C)CC(=O)OC
output: 46.4

input: Report IC50 for C=CC(=O)Nc1cc(Nc2nccc(Nc3ccn(C)n3)n2)c(OC)cc1N(C)CCN(C)CC(=C)C
output: 625

input: Report IC50 for C=CC(=O)Nc1cc(Nc2nccc(Nc3cn(C)nc3C)n2)c(OC)cc1N(C)CCN(C)C
output: 11.6

input: Report IC50 for C=CC(=O)Nc1cc(Nc2nccc(Nc3cnn(C)c3)n2)c(OC)cc1N(C)CCN(C)C
output: 54.3

###

# method.notes: Selectivity index, ratio of IC50 Inhibition of wild type EGFR (unknown origin) to IC50 for Inhibition of EGFR T790M/C797S double mutant (unknown origin)
# Ratio IC50 annotations
Quick one: just the number, no unit, thanks!

Solved cases below.
C=CCCN(C)CCN(C)c1cc(OC)c(Nc2nccc(Nc3cn(C)c4ccccc34)n2)cc1NC(=O)C=C	21.3
C=CC(=O)Nc1cc(Nc2nccc(Nc3ccn(C)n3)n2)c(OC)cc1N(C)CCN(C)C	15.6

Query compound follows.
input: Report Ratio IC50 for C=CC(=O)Nc1cc(Nc2nccc(Nc3cn(C)c4ccccc34)n2)c(OC)cc1N(C)CCN(C)C(=O)OC
output: 235

###

# method.notes: Selectivity index, ratio of IC50 Inhibition of wild type EGFR (unknown origin) to IC50 for Inhibition of EGFR T790M/C797S double mutant (unknown origin)
observable: Ratio IC50
Quick one: just the number, no unit, thanks!

C=CC(=O)Nc1cc(Nc2nccc(Nc3cn(C)c4ccccc34)n2)c(OC)cc1N(C)CCN(C)CC(=C)C	31.4
C=CC(=O)Nc1cc(Nc2nccc(Nc3cn(C)c4ccccc34)n2)c(OC)cc1N(C)CCN(C)CC(=O)OC	78.8

Query compound follows.
input: Report Ratio IC50 for C=CC(=O)Nc1cc(Nc2nccc(Nc3ccn(C)n3)n2)c(OC)cc1N(C)CCN(C)C(=O)OC
output: 9.84

###

# test.target: Epidermal growth factor receptor (Homo sapiens, UniProt P00533, EX19DEL)
# method.notes: Inhibition of EGFR del19 (unknown origin) using flurogenic substrate in presence of ATP by HTRF assay
observable: IC50 (µM)
Provide the reading as a plain figure in µM.

Solved cases below.
C#CCN(C)CCN(C)c1cc(OC)c(Nc2nccc(Nc3cn(C)c4ccccc34)n2)cc1NC(=O)C=C	0.00957
C=CC(=O)Nc1cc(Nc2nccc(Nc3cnn(CC)c3)n2)c(OC)cc1N(C)CCN(C)C	0.0187
C=CC(=O)Nc1cc(Nc2nccc(Nc3cn(C)c4ccccc34)n2)c(OC)cc1N(C)CCN(C)C(=O)C#CC	0.949

Query compound follows.
input: Tell me its IC50 on Epidermal growth factor receptor (Homo sapiens, UniProt P00533, EX19DEL): C=CC(=O)Nc1cc(Nc2nccc(Nc3cn(C)c4ccccc34)n2)c(OC)cc1N(C)CCN(C)C(=O)OC
output: 0.213

###

System: Epidermal growth factor receptor (Homo sapiens, UniProt P00533) | Read-out: IC50
Sequence (P00533 whole entry): as the sequence (P00533 whole entry, looked up, stated change not applied) above

Solved cases below.
C=CC(=O)Nc1cc(Nc2nccc(Nc3cn(C)nc3C)n2)c(OC)cc1N(C)CCN(C)C	71.3 nM
C=CC(=O)Nc1cc(Nc2nccc(Nc3ccn(C)n3)n2)c(OC)cc1N(C)CCN(C)C	96.5 nM

input: Tell me its IC50 on Epidermal growth factor receptor (Homo sapiens, UniProt P00533): C=CC(=O)Nc1cc(Nc2nccc(Nc3cn(C)c4ccccc34)n2)c(OC)cc1N(C)CCN(C)C(=O)C=C
output: > 10000 nM

input: Tell me its IC50 on Epidermal growth factor receptor (Homo sapiens, UniProt P00533): C=CC(=O)Nc1cc(Nc2nccc(Nc3cn(C)c4ccccc34)n2)c(OC)cc1N(C)CCN(C)C(=O)C#CC
output: > 10000 nM

input: Tell me its IC50 on Epidermal growth factor receptor (Homo sapiens, UniProt P00533): C#CCN(C)CCN(C)c1cc(OC)c(Nc2nccc(Nc3ccn(C)n3)n2)cc1NC(=O)C=C
output: 50.8 nM

input: Tell me its IC50 on Epidermal growth factor receptor (Homo sapiens, UniProt P00533): C=CC(=O)Nc1cc(Nc2nccc(Nc3cn(C)c4ccccc34)n2)c(OC)cc1N(C)CCN(C)C(=O)OC
output: 2910 nM

input: Tell me its IC50 on Epidermal growth factor receptor (Homo sapiens, UniProt P00533): C=CC(=O)Nc1cc(Nc2nccc(Nc3cnn(CC)c3)n2)c(OC)cc1N(C)CCN(C)C
output: 101 nM

input: Tell me its IC50 on Epidermal growth factor receptor (Homo sapiens, UniProt P00533): C=CC(=O)Nc1cc(Nc2nccc(Nc3ccn(C)n3)n2)c(OC)cc1N(C)CCN(C)CC(=O)OC
output: 952 nM

input: Tell me its IC50 on Epidermal growth factor receptor (Homo sapiens, UniProt P00533): C#CCN(C)CCN(C)c1cc(OC)c(Nc2nccc(Nc3cn(C)c4ccccc34)n2)cc1NC(=O)C=C
output: > 10000 nM

input: Tell me its IC50 on Epidermal growth factor receptor (Homo sapiens, UniProt P00533): C=CC(=O)Nc1cc(Nc2nccc(Nc3cn(C)c4ccccc34)n2)c(OC)cc1N(C)CCN(C)Cc1ccc(Br)cc1
output: 2470 nM
